The measured values listed here are drawn from PubChem BioAssay (NCI).

System: SNB-19 CNS
experimentNotes: NCI tumour cell line growth inhibition, 48 h; in the data active means GI50 below about 0.43 µM; inactive means the rest
Possible outcomes: active, inactive

# compound, qualitativeLabel
rows = [
    ("COc1ccc(N(C)c2ncnc3occ(C)c23)cc1", "active"),
    ("COc1ccc2c(c1)C(C)Cc1c(Cl)ncnc1N2C (stereo not given)", "inactive"),
    ("OCCN1CN(CCO)CN(c2nc(N3CN(CCO)CN(CCO)C3)nc(N3CN(CCO)CN(CCO)C3)n2)C1", "inactive"),
    ("O=C(OCc1ccc2cccc(O)c2n1)N1CCN(C(=O)c2cc3cc(F)ccc3[nH]2)CC1", "inactive"),
    ("O=C(c1ccccc1)c1cc(Cl)ccc1OCCCCN1CCN(CCCCOc2ccc(Cl)cc2C(=O)c2ccccc2)CC1", "inactive"),
]

* * *

System: UACC-62 melanoma
experimentNotes: NCI tumour cell line growth inhibition, 48 h
endpointName: log10 of TGI (log10 of the value in µM)

# molecule, experimentalSystem, endpointName, reportedMeasurement
data = [
    ("CCCCCN=Cc1c(O)c(O)c(C(C)C)c2cc(C)c(-c3c(C)cc4c(C(C)C)c(O)c(O)c(C=NCCCCC)c4c3O)c(O)c12", "UACC-62 melanoma", "log10 of TGI", 1.52),
    ("CCC[CH2][Ge]([CH2]CCC)([CH2]CCC)[O]C(=O)CC(=O)c1ccccc1", "UACC-62 melanoma", "log10 of TGI", 1.00),
    ("COc1ccc(C(=O)c2cc(OC)c(C)c(OC)c2)cc1OC(=O)CCl", "UACC-62 melanoma", "log10 of TGI", 1.35),
    ("NC(=NCCCOc1ccc(Cl)cc1)Nc1ccc(C(F)(F)F)cc1", "UACC-62 melanoma", "log10 of TGI", 0.56),
    ("CC1OC2CC(=O)OC2C2=C1C(=O)c1c(O)cccc1C2=O (stereo not given)", "UACC-62 melanoma", "log10 of TGI", -0.54),
    ("O=C1N=c2ccccc2=C1c1c(O)[nH]c2ccccc12", "UACC-62 melanoma", "log10 of TGI", 1.59),
    ("COC(=O)C1=C(c2ccc3c(c2)OCO3)O[C@H](c2cc(OC)c(OC)c(OC)c2)[C@H]1COC(C)=O", "UACC-62 melanoma", "log10 of TGI", 1.68),
    ("C=CCNC1=C2C[C@@H](C)C[C@@H](OC)[C@H](OC(=O)CCCCN)[C@H](C)/C=C(\\C)[C@@H](OC(N)=O)[C@H](OC)/C=C\\C=C(/C)C(=O)NC(=CC1=O)C2=O", "UACC-62 melanoma", "log10 of TGI", 1.44),
]

* * *

System: NCI-H460 lung
experimentNotes: NCI tumour cell line growth inhibition, 48 h

# molecule, experimentalSystem, resultComparator, TGI, µM
records = [
    ("CC(C)(C)OC(=O)NCC(O)CNC(=O)OC(C)(C)C", "NCI-H460 lung", ">", 100),
    ("Cc1ccc(S(=O)(=O)Oc2cc(-c3ccccc3)nc3ccccc23)cc1", "NCI-H460 lung", "=", 13.7),
    ("Cc1cc(C)c(S(=O)(=O)N2CCCN(S(=O)(=O)c3c(C)cc(C)cc3C)OCCCON(S(=O)(=O)c3c(C)cc(C)cc3C)CCCN(S(=O)(=O)c3c(C)cc(C)cc3C)OCCCO2)c(C)c1", "NCI-H460 lung", ">", 100),
    ("C=C1CC(c2ccc(OCCCN3C(=O)c4ccccc4C3=O)c(OC)c2)OC1=O (stereo not given)", "NCI-H460 lung", "=", 14.5),
    ("COC(=O)/C=C/c1cc(O)c2oc(-c3ccc(O)c(O)c3)c(C(=O)OC)c2c1", "NCI-H460 lung", "=", 18.1),
    ("COc1ccc(OC)c(NC(=O)C(=O)NNC(=O)c2sc(NNC(C)=O)nc2C)c1", "NCI-H460 lung", ">", 100),
    ("CCN(CC)CCOc1ccc(/C=C(\\C#N)c2ccc(OCCN(CC)CC)cc2)cc1", "NCI-H460 lung", "=", 36.6),
    ("COc1ccc(NC(=O)CCc2cc(-c3ccc(O)c(OC)c3)nc(NC#N)n2)cc1", "NCI-H460 lung", ">", 100),
    ("CCCCCCCCCC/C=C/CC(=O)SCCNC(=O)CCNC(=O)[C@@H](O)C(C)(C)COP(=O)(O)OP(=O)(O)OCC1OC(n2cnc3c(N)ncnc32)C(O)C1OP(=O)(O)O (stereo not given in full)", "NCI-H460 lung", ">", 10),
    ("COc1ccc(C(=O)Sc2c(-c3ccccc3)c(=O)n(-c3ccccc3)c(=S)n2-c2ccccc2)cc1", "NCI-H460 lung", ">", 100),
    ("O=C1NC(=Nc2ccccc2)S/C1=C\\c1ccc2ncccc2c1", "NCI-H460 lung", ">", 25),
    ("CC[N+](CC)(CCNCC(N)=O)CC(N)=O", "NCI-H460 lung", ">", 10),
    ("Cc1cc(Br)cc(C)c1NC(=O)C(=O)C(C(=O)c1ccc2ccccc2c1)C1OC(=O)c2ccccc21 (stereo not given)", "NCI-H460 lung", "=", 20.9),
    ("CC(=O)c1c2c(cc3c1CC1(Cc4ccccc4C1=O)C3)CCC2 (stereo not given)", "NCI-H460 lung", ">", 100),
    ("COc1ccc(N=C2SC(=N/N=c3\\sc4ccccc4n3C)SC2=Nc2ccc(OC)cc2)cc1", "NCI-H460 lung", ">", 100),
    ("Cc1ccc(/C=N/n2c(=O)[nH]c3ccccc3c2=O)cc1", "NCI-H460 lung", ">", 100),
    ("CCOC(=O)C1=C(C)N(C)C23OC4(C(=O)OC)CC2c2ccccc2C1N3C4=O (stereo not given)", "NCI-H460 lung", ">", 100),
    ("CC(=O)Oc1cccc2c(/C=N/NC(N)=S)ncc(C)c12", "NCI-H460 lung", "=", 7.81),
    ("CCC[CH2][Sn]([CH2]CCC)([CH2]CCC)[O]C(=O)CC", "NCI-H460 lung", "=", 0.281),
    ("CNCCCn1cc(C2=C(c3cn(C)c4ccccc34)C(=O)NC2=O)c2ccccc21", "NCI-H460 lung", "=", 9.19),
]

* * *

Reported TGI values follow for various molecules
Tested on: CCRF-CEM leukemia
experimentNotes: NCI tumour cell line growth inhibition, 48 h

# molecule, measurementUnits, resultComparator, TGI
rows = [
    ("CCOC(=O)C1=C(C)N(C)C23OC4(C(=O)OC)CC2c2ccccc2C1N3C4=O (stereo not given)", "µM", ">", 100),
    ("COC(=O)C1=C(c2ccc3c(c2)OCO3)O[C@H](c2cc(OC)c(OC)c(OC)c2)[C@H]1COC(C)=O", "µM", ">", 100),
    ("CNn1c(-c2ccccc2)n[nH]c1=O", "µM", ">", 100),
    ("CC1=Nc2ccccc2C1C(Cc1ccccc1N)c1c(C)[nH]c2ccccc12 (stereo not given)", "µM", "=", 47.2),
    ("CC(=O)OC1CCC2(C)C3CCC4(C)C(c5ccc(=O)oc5)CC5OC54C3CCC2(O)C1 (stereo not given)", "µM", "=", 2.7),
]

* * *

Test system: NCI/ADR-RES ovarian
experimentNotes: NCI tumour cell line growth inhibition, 48 h; in the data active = GI50 below about 0.43 µM; inactive = the rest
Outcome codes: active, inactive

# compound, experimentalSystem, qualitativeLabel
rows = [
    ("NC(=NCCCOc1ccc(Cl)cc1)Nc1ccc(C(F)(F)F)cc1", "NCI/ADR-RES ovarian", "inactive"),
    ("Oc1ccc(Cl)cc1Cc1cc(Cl)cc(Cl)c1O", "NCI/ADR-RES ovarian", "inactive"),
    ("Cc1ccc(Cl)cc1Nc1nc(C(F)(F)F)ccc1C(=O)N1CCN(c2ccc(F)cc2)CC1", "NCI/ADR-RES ovarian", "inactive"),
    ("O=S(=O)(Nc1cc(F)cc(Cl)c1)c1ccc(-c2cnc(C3CC3)o2)cc1", "NCI/ADR-RES ovarian", "inactive"),
    ("CNCCNc1c2c(c(NCCNC)c3c(CN(C)C)c[nH]c13)C(=O)c1ccccc1C2=O", "NCI/ADR-RES ovarian", "inactive"),
    ("CCOC(=O)/C=C/C(C(=O)/C=C/c1ccc(OC2CCCCO2)c(OC)c1)=C(O)\\C=C\\c1ccc(OC2CCCCO2)c(OC)c1 (stereo unspecified)", "NCI/ADR-RES ovarian", "inactive"),
    ("CC1OC2CC(=O)OC2C2=C1C(=O)c1c(O)cccc1C2=O (stereo unspecified)", "NCI/ADR-RES ovarian", "active"),
    ("COCCOc1cc(F)c2c(Nc3ccc(NC(=O)Cn4cc(C(C)C)nn4)cc3)ncnc2c1", "NCI/ADR-RES ovarian", "inactive"),
    ("NCCCNc1nc2ccccc2c2c(=O)c3cc(OC(F)(F)F)ccc3sc12", "NCI/ADR-RES ovarian", "inactive"),
    ("OCCN1CN(CCO)CN(c2nc(N3CN(CCO)CN(CCO)C3)nc(N3CN(CCO)CN(CCO)C3)n2)C1", "NCI/ADR-RES ovarian", "inactive"),
    ("C=CC1CC12C(=O)C1OC2(C)C2C(=O)c3cc4ccccc4cc3C(=O)C12 (stereo unspecified)", "NCI/ADR-RES ovarian", "inactive"),
    ("O=C(Nc1ccc(OS(=O)(=O)c2ccccc2)cc1)C12CC3CC(CC(C3)C1)C2", "NCI/ADR-RES ovarian", "inactive"),
    ("COC(=O)/C=C/c1cc(O)c2oc(-c3ccc(O)c(O)c3)c(C(=O)OC)c2c1", "NCI/ADR-RES ovarian", "active"),
    ("CC(=O)OC1Oc2ccccc2-c2oc(=O)c(-c3cc(=O)oc4cc(O)ccc34)cc21 (stereo unspecified)", "NCI/ADR-RES ovarian", "inactive"),
    ("CC(C)(C)C(=O)OCOP(=O)(OCOC(=O)C(C)(C)C)C1CCCN(O)C1=O (stereo unspecified)", "NCI/ADR-RES ovarian", "inactive"),
    ("Ic1ccc(Nc2nc3nonc3nc2Nc2ccc(I)cc2)cc1", "NCI/ADR-RES ovarian", "active"),
]
